Values compiled from ChEMBL document CHEMBL3826903.

- test: Drug localization in mitochondria of mouse Colon 26 cells assessed as bright detail similarity scores at 0.2 uM incubated for 15 mins in presence of MTG by flow cytometry
- Type: ADME
- assay-setup: colon 26, 0.25 h
Please respond with reported Drug uptake for every item in the list.

                            compound_smiles  parameter_measured  reading
0  CN(C)c1ccc2c(-c3ccccc3)c3cc4ccc(=[N+](C)C)cc4cc3[se]c2c1.F[P-](F)(F)(F)(F)F         Drug uptake   0.7204

Please go through the list and note Drug uptake for each molecule.
1. CN(C)c1ccc2c(-c3ccccc3)c3ccc4cc(=[N+](C)C)ccc4c3sc2c1.F[P-](F)(F)(F)(F)F
2. CN(C)c1ccc2c(-c3ccccc3)c3ccc4cc(=[N+](C)C)ccc4c3[se]c2c1.F[P-](F)(F)(F)(F)F
3. CN(C)c1ccc2c(-c3ccccc3)c3cc4ccc(=[N+](C)C)cc4cc3sc2c1.F[P-](F)(F)(F)(F)F

A.
[1.77, 1.38, 1.2]

###

- test: Dark toxicity against mouse Colon 26 cells assessed as cell survival fraction incubated for 1 hr in dark measured after 48 hrs by SRB assay
- Format: cell-based
- assay-setup: read-out: LD50
Please respond with reported CC50 at 1 h for every item in the list.
One number for each entry, in nM.

In [3]: df
Out[3]:
                            compound_smiles  parameter_measured  unit  reading
0  CN(C)c1ccc2c(-c3ccccc3)c3cc4ccc(=[N+](C)C)cc4cc3sc2c1.F[P-](F)(F)(F)(F)F         CC50 at 1 h    nM      460

For the next question, use this molecule.
Q. Consider the molecule "CN(C)c1ccc2c(-c3ccccc3)c3cc4ccc(=[N+](C)C)cc4cc3[se]c2c1.F[P-](F)(F)(F)(F)F" and give its measured CC50 at 1 h.
A. 2000

###

- test: Therapeutic index, ratio of LD50 for dark toxicity against mouse Colon 26 cells to EC50 for phototoxicity against mouse Colon 26 cells at 5 Jcm'-2 of irradiation with 690 +/- 2 nm light
- Assay type: cell-based
- assay-setup: read-out: Ratio LD50/EC50
parameter-measured: selectivity ratio

Q. Consider the compound "CN(C)c1ccc2c(-c3ccccc3)c3cc4ccc(=[N+](C)C)cc4cc3sc2c1.F[P-](F)(F)(F)(F)F" and give its measured selectivity ratio.
A. 3.3
